Values were extracted from PubChem BioAssay (NCI).

System: T-47D breast
Test: NCI-60 one-dose screen, 48 h (100 = growth as untreated, 0 = no growth, -100 = all killed)
Conditions: 10 µM unless noted
The panel holds about 83,000 compounds, 20% with a hit somewhere; the sample as a whole holds those more often.
PROPERTY_LABEL: growth (%)
Kindly answer with a numeric value in %, unit omitted.

Fc1ccc2c(c1)c(-c1nc(-c3c[nH]c4ncccc34)cs1)cn2CCCN1CCCCC1    67.5

Query: Recorded growth for CC(=O)O[C@H]1CC[C@@]2(C)[C@@H](CC[C@@H]3[C@@H]2CC(=O)[C@@]2(C)[C@H]3C[C@@H](C3CCCC3=O)[C@@H]2C(C)=O)C1 (stereo not given in full) , please?
Result: 91.1

Query: Recorded growth for COc1ccc(-c2n/c(=C\c3c(O)[nH]c4ccc(OC)cc34)cc3c2=Nc2ccccc2-3)cc1 , please?
Result: 93

Query: Recorded growth for Cn1cc(-c2csc(-c3c[nH]c4ccccc34)n2)c2cccnc21 , please?
Result: 27.2

Query: Recorded growth for O=C(NO)c1ccc(Cn2c(=O)n(-c3ccccc3)c(=O)c3ccccc32)cc1 , please?
Result: 14.1

Query: Recorded growth for Nc1c(C(=O)Nc2c(Cl)cccc2Cl)sc2nc3c(cc12)C(=O)CCC3 , please?
Result: 35.7

Query: Recorded growth for CC(=O)c1c(C)[nH]c(-c2nc3ccc(N4CCN(C)CC4)cc3[nH]2)c1-c1ccc2c(c1)OCCO2 , please?
Result: 37.7

Query: Recorded growth for COc1ccc(/C=C(\C#N)c2cc3ccccc3n2C(C)=O)cc1 , please?
Result: 78.5

Query: Recorded growth for CC(C)(C)c1ccc(OCCCCCCCN2CCNCC2)cc1 , please?
Result: 6.54

Query: Recorded growth for C=C(C)[C@@H]1CC[C@]2(c3nnc(-c4ccncc4)o3)CC[C@]3(C)[C@H](CC[C@@H]4[C@@]5(C)CCC(=O)NC(C)(C)[C@@H]5CC[C@]43C)[C@@H]12 , please?
Result: 100

###

Tested on: KM12 colon
Assay: NCI-60 one-dose screen, 48 h
Details: 10 µM unless noted
This is part of a sample that, as a whole, favours compounds with a hit. Of some 83,000 tested, about 20% had one in any assay. The source made the active and inactive calls. How the source made its calls: active means growth percent below 10; inactive means the rest.
Parameter call: string, one of active, inactive

Completed entries (count: 3):
CN1CCN(c2nc(-c3csc(-c4cccs4)n3)cc3ccccc23)CC1    active
C/C(=C(/c1ccccc1)c1ccc(N2C(=O)c3cccc4c(NCc5ccccc5)ccc(c34)C2=O)cc1)c1ccccc1    inactive
O=c1[nH]c(=S)[nH]c2nc[nH]c12    inactive

Query: Which outcome was assigned to COc1ccc(C2C(C#N)=C(N)Oc3c2sc2c(F)cccc32)cc1 (configuration not stated) in this test?
Result: inactive

Query: Which outcome was assigned to COc1cc(-c2cc3ncccc3c3nc(N)c4cccnc4c23)cc(OC)c1OC in this test?
Result: inactive

Query: Which outcome was assigned to Cc1cc(N(CCCNc2ccnc3cc(Cl)ccc23)Cc2ccco2)nc(Cl)n1 in this test?
Result: inactive

Query: Which outcome was assigned to Cc1cc(N2CCOCC2)nc(N(CCCNc2ccnc3cc(Cl)ccc23)Cc2ccco2)n1 in this test?
Result: inactive

Query: Which outcome was assigned to O=C1/C(=C\c2ccc(Br)o2)SC(=S)N1CCc1ccc(O)cc1 in this test?
Result: inactive

Query: Which outcome was assigned to CN(CSc1ccc(Cl)cc1)c1ccc(CSc2ccc(Cl)cc2)cc1 in this test?
Result: inactive

Query: Which outcome was assigned to COC(=O)CCCCCn1c2ccccc2c2c3c(c4c5ccccc5[nH]c4c21)C(=O)N(O)C3=O in this test?
Result: inactive

Query: Which outcome was assigned to CCC(c1ccc(OC)cc1)C(CC)c1ccc(O)c(CN2CCCCC2)c1 (configuration not stated) in this test?
Result: inactive

Query: Which outcome was assigned to COc1ccc(-c2c(-c3nc4ccc(N5CCOCC5)cc4[nH]3)[nH]c(C)c2C(C)=O)cc1 in this test?
Result: inactive

Query: Which outcome was assigned to COC(=O)[C@]12CC[C@@H](C)[C@H](C)[C@@H]1C1=CC[C@@H]3[C@@]4(C)C[C@@H](O)OC[C@](C)(C=O)C4C(=O)C[C@@]3(C)[C@]1(C)CC2 (some centres not stated) in this test?
Result: active

Query: Which outcome was assigned to COc1cc2[nH]c(C(=O)c3cc(OC)c(OC)c(OC)c3)c(N)c2cc1C#CC1CC1 in this test?
Result: inactive

Query: Which outcome was assigned to N#Cc1cnc2cc(OC[C@@H](O)CO)c(NC(=O)C3CCCC3)cc2c1Nc1ccc(OCc2cccc(F)c2)c(Cl)c1 in this test?
Result: inactive

Query: Which outcome was assigned to C#Cc1cc2c(N)c(C(=O)c3cc(OC)c(OC)c(OC)c3)[nH]c2cc1OC in this test?
Result: inactive

Query: Which outcome was assigned to COc1cccc(-c2nn(-c3ccccc3)cc2-c2ccnc(NCCCNS(=O)(=O)c3ccc(C(F)(F)F)cc3)c2)c1 in this test?
Result: inactive

Query: Which outcome was assigned to c1ccc2[nH]c(-c3ccc(Nc4nc(N5CCCCC5)nc(N5CCOCC5)n4)cc3)nc2c1 in this test?
Result: inactive

Query: Which outcome was assigned to C/C(=N\Nc1ccc2ccccc2n1)c1ccccn1 in this test?
Result: active

Query: Which outcome was assigned to Cn1cc(-c2csc(-c3cn(C(=O)OC(C)(C)C)c4ccc(Br)cc34)n2)c2cccnc21 in this test?
Result: inactive

Query: Which outcome was assigned to Cc1ccc(Nc2c(C(N)=O)cnc3ccc(S(=O)(=O)Nc4cc(C)on4)cc23)cc1 in this test?
Result: inactive

Query: Which outcome was assigned to COc1ccc(CCN2C(=O)C(C)(C)SC2=S)cc1OC in this test?
Result: inactive

Query: Which outcome was assigned to CCc1ccccc1NC(=O)c1sc2nc3c(cc2c1N)CCCC3 in this test?
Result: inactive

Query: Which outcome was assigned to CC(Cc1ccco1)C(=O)NC(N)=O (configuration not stated) in this test?
Result: inactive

Query: Which outcome was assigned to COc1ccc2nc(-c3c(-c4ccccc4)nc4ncccn34)[nH]c2c1 in this test?
Result: inactive

Query: Which outcome was assigned to Cn1cc(-c2csc(-c3cn(CCCN4CCCCC4)c4ccc(Br)cc34)n2)c2cccnc21 in this test?
Result: active

Query: Which outcome was assigned to COc1cc(/C=N/NC(=S)NNC(=S)NC2CCCCC2)cc(OC)c1OC in this test?
Result: inactive

###

Tested on: HCT-116 colon
Assay: NCI-60 one-dose screen, 48 h
Details: 10 µM unless noted
The panel holds about 83,000 compounds, 20% with a hit somewhere; the sample as a whole holds those more often. The source made the active and inactive calls. How the source made its calls: active means growth percent below 10; inactive means the rest.
Parameter call: string, one of active, inactive

Query: Which outcome was assigned to Cc1ccncc1C(=O)O in this test?
Result: inactive

Query: Which outcome was assigned to Cc1cc(N2CCCC2)nc(N(CCNc2ccnc3cc(Cl)ccc23)Cc2ccco2)n1 in this test?
Result: active

Query: Which outcome was assigned to Cc1cc(C=O)c(C)c2c1[nH]c1ccccc12 in this test?
Result: inactive

Query: Which outcome was assigned to COc1cc(/C=N/NC(=S)NNC(=S)NC2CCCCC2)cc(OC)c1OC in this test?
Result: inactive

Query: Which outcome was assigned to O=C(/C=C/c1ccc2ccccc2c1)Nc1ncc(Cc2ccccc2)s1 in this test?
Result: inactive

Query: Which outcome was assigned to COc1cccc(-c2nn(-c3ccccc3)cc2-c2ccnc(NCCCNS(=O)(=O)c3cccc(F)c3)c2)c1 in this test?
Result: inactive

###

Test system: A549/ATCC NSCLC
Test: NCI-60 one-dose screen, 48 h (100 = growth as untreated, 0 = no growth, -100 = all killed)
Conditions: 10 µM unless noted
About 83,000 compounds went through this panel and 20% of them were active in at least one assay; those are over-represented in the sample as a whole.
Classify by measured growth: met if it is equal to or exceeds 40%, not met if it is smaller.

C/C(=N\Nc1cc(C)c2ccccc2n1)c1ccccn1    not met
Cn1nc(-c2ccccc2)c2c(-c3ccccc3)onc2c1=O    not met
COc1cc(-c2cc3ncccc3c3nc(OCCN(C)C)c4cccnc4c23)cc(OC)c1OC    not met
CSc1ccc(N(C)c2nc(C)nc3c2CCC3)cc1    not met
Cc1ccc(-c2nc([P+](c3ccccc3)(c3ccccc3)c3ccccc3)c(N3CCOCC3)o2)cc1    not met

Query: Test whether the molecule COc1ccc(C2=NN(c3nc(-c4ccc(OC)cc4)c(C#N)c(=O)n3C)C(=O)CC2)cc1 records growth of 40% or higher.
Result: met

Query: Test whether the molecule C=C(C)[C@@H]1CC[C@]2(C(=O)N3CCCNCC3)CC[C@]3(C)[C@H](CC[C@@H]4[C@@]5(C)CCC(=O)C(C)(C)[C@@H]5CC[C@]43C)[C@@H]12 records growth of 40% or higher.
Result: met
